- assayOverview: Activation of PPARgamma L469A mutant-mediated transcriptional activity assessed as Gal4 reporter activity
reportedEndpoint: EC50

Give the reported EC50 for this compound. CN(CCOc1ccc(CC2SC(=O)NC2=O)cc1)c1ccccn1 (stereo unspecified)
> 10 µM

* * *

- assayOverview: Activation of PPARgamma I472A mutant-mediated transcriptional activity assessed as Gal4 reporter activity
reportedEndpoint: EC50

Hello, please tell me recorded EC50 for this one: CN(CCOc1ccc(CC2SC(=O)NC2=O)cc1)c1ccccn1 (stereo unspecified)
> 10 µM
